Measured values drawn from the RNAGym collection of RNA variant scans (doi:10.7554/elife.80360) for this set.

B1: Hairpin Ribozyme (parent)
chain: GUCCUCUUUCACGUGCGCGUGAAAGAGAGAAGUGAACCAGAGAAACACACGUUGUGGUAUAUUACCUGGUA

- Variants of: B1
- test_summary: self-cleavage, relative activity (ratio to wild type); higher = more cleavage; co-transcriptional
Overview of reported self-cleavage across a group of variants:
reported_property: self-cleavage

>>> obs_value("GUCCUCUUUCACGUGCGCGUGAAAGAGAGAAGUGAACCAGAGAAACACACGUUGUGGCAUAUGACCUGGUA [U58C U63G]")
0.27
>>> obs_value("GUCCUCUUUCACGUGCGCGUCAAAGAGAGAAGUGAACCAGAGAAACACACGCUGUGGUAUAUUACCUGGUA [G21C U52C]")
0.971
>>> obs_value("GUCCUCUUUCACGUGCGCGUGCAAGAGAGAAGUGACCCAGAGAAACACACGUUGUGGUAUAUUACCUGGUA [A22C A36C]")
0.559
>>> obs_value("GUCCUCUUUCUCAUGCGCGUGAAAGAGAGAAGUGAACCAGAGAAACACACGUUGUGGUAUAUUACCUGGUA [A11U G13A]")
0.672
>>> obs_value("GUCCUCUUUCACGUGCGCGUGAAAGAGGGAAGUGAACCAGAGCAACACACGUUGUGGUAUAUUACCUGGUA [A28G A43C]")
0.153
>>> obs_value("GUCCUCUUGCACGUGCGCGUGAAAGAGAGAAAUGAACCAGAGAAACACACGUUGUGGUAUAUUACCUGGUA [U9G G32A]")
0.128
>>> obs_value("GUCCUCUUUCACGUGCGCGUGAAAGAGAGAAGUGCACCAGAGAAAUACACGUUGUGGUAUAUUACCUGGUA [A35C C46U]")
0.221
>>> obs_value("GUCCUCUUUCACGUGCGCGUGAAAGAGAGAAGUGAACCAGGGAGACACACGUUGUGGUAUAUUACCUGGUA [A41G A44G]")
0.249
>>> obs_value("GUCCUCUUUCACGUGCGCGUGAAAGAGAGAAGUGAACCAUAGAAACACACGGUGUGGUAUAUUACCUGGUA [G40U U52G]")
0.172
>>> obs_value("GUCCUCUUUCACGUGCGCGUGAAAGAGCGAAGUGAACCAGAGAAACACAUGUUGUGGUAUAUUACCUGGUA [A28C C50U]")
0.168
>>> obs_value("GUCCUCUUUCACGUGCGCGUGAAAGAGAGAAGUGAACCAGAGAAACAGACGUUGUGGUAUAUUACCUGGUA [C48G]")
0.153
